Origin of measurements: the supplement of paper PMC13380429

# Test system: Vero E6 infected with SARS-CoV-2
# RUN_DESCRIPTION: SARS-CoV-2 infection rate relative to infected DMSO; higher = more infection, active = 60 or less
# TEST_CONTEXT: 24 h
A collection of compounds and their measured SARS-CoV-2 infection rate

COMPOUND	SARS-CoV-2 infection rate / %
CO[C@H]1/C=C\C=C(/C)C(=O)NC2=CC(=O)C(NCCN(C)C)=C(C[C@@H](C)C[C@H](OC)[C@H](O)[C@@H](C)/C=C(\C)[C@@H]1OC(N)=O)C2=O [alvespimycin] (10 µM)	91
O=C(Nc1ccc(-c2ccncc2)cc1)N[C@H](CO)c1ccccc1 (0.833333 µM)	94
CCCCN(CCCC)CCC(O)c1cc2c(Cl)cc(Cl)cc2c2cc(C(F)(F)F)ccc12 (stereo unspecified) [halofantrine] (10 µM)	79.5
COc1cc(N)c(Cl)cc1C(=O)N[C@@H]1CCN(CCCOc2ccc(F)cc2)C[C@@H]1OC (racemic) [cisapride] (10 µM)	112
CCOc1ccc(C[C@H]2NC(=O)CCSSC[C@@H](C(=O)N3CCC[C@H]3C(=O)N[C@@H](CCCN)C(=O)NCC(N)=O)NC(=O)[C@H](CC(N)=O)NC(=O)[C@H]([C@@H](C)O)NC(=O)[C@H]([C@@H](C)CC)NC2=O)cc1 [atosiban] (10 µM)	91
COc1cc(C)[nH]c(=O)c1CNC(=O)c1c(C)n([C@H](C)C2CCOCC2)c2ccccc12 (10 µM)	96.5
